Tested on: Saccharomyces cerevisiae
Assay: protein stability index of tFT-peptide fusion (C-terminal peptide) (PSI (0-1 scale)); higher = more stable (slower turnover)
Settings: genetic background: das1 deletion; temperature: 30 C
Cut-off 0.7 on protein stability index, inclusive. At or above means true; below means false.

- BIOPOLYMER_SEQUENCE: "ELEELLEPILAN [GRX1 C-terminal 12 aa]"
  LABEL_CLASS: "false"
- BIOPOLYMER_SEQUENCE: "RNSPSYTGDHKT [YOR072W-A C-terminal 12 aa]"
  LABEL_CLASS: "true"
- BIOPOLYMER_SEQUENCE: "RSPKKKKNYHKR [NUR1 C-terminal 12 aa]"
  LABEL_CLASS: "true"
- BIOPOLYMER_SEQUENCE: "IKNRLNGLKYRL [YML020W C-terminal 12 aa]"
  LABEL_CLASS: "true"
- BIOPOLYMER_SEQUENCE: "TGWPTGLRHQHT [YER133W-A C-terminal 12 aa]"
  LABEL_CLASS: "true"
- BIOPOLYMER_SEQUENCE: "PTYDNNRHYGND [YFL032W C-terminal 12 aa]"
  LABEL_CLASS: "false"

###

Tested on: Saccharomyces cerevisiae
Assay: protein stability index of tFT-peptide fusion (C-terminal peptide) (PSI (0-1 scale)); higher = more stable (slower turnover)
Settings: genetic background: wild type; temperature: 30 C
The entries below are paired with their reported protein stability index.
MEASURED_ENDPOINT: protein stability index

- BIOPOLYMER_SEQUENCE: "RSLSWCTKRRCC"
  MEASURED_ENDPOINT: "protein stability index"
  RESULT_VALUE: 0.226
- BIOPOLYMER_SEQUENCE: "LCWASLLIVYLP"
  MEASURED_ENDPOINT: "protein stability index"
  RESULT_VALUE: 0.278
- BIOPOLYMER_SEQUENCE: "GVRRRQLIWSVC"
  MEASURED_ENDPOINT: "protein stability index"
  RESULT_VALUE: 0.164
- BIOPOLYMER_SEQUENCE: "WCAGCLGWWLQS"
  MEASURED_ENDPOINT: "protein stability index"
  RESULT_VALUE: 0.316
- BIOPOLYMER_SEQUENCE: "RSLSFGMVLCYS"
  MEASURED_ENDPOINT: "protein stability index"
  RESULT_VALUE: 0.253
- BIOPOLYMER_SEQUENCE: "FLVPLSPMLLSA"
  MEASURED_ENDPOINT: "protein stability index"
  RESULT_VALUE: 0.347
- BIOPOLYMER_SEQUENCE: "SRDSLLTLIPSC"
  MEASURED_ENDPOINT: "protein stability index"
  RESULT_VALUE: 0.636
- BIOPOLYMER_SEQUENCE: "DFCCGVILTCVC"
  MEASURED_ENDPOINT: "protein stability index"
  RESULT_VALUE: 0.184
- BIOPOLYMER_SEQUENCE: "FCVLLFFFPLII"
  MEASURED_ENDPOINT: "protein stability index"
  RESULT_VALUE: 0.261
- BIOPOLYMER_SEQUENCE: "VLGLYSLLLSFF"
  MEASURED_ENDPOINT: "protein stability index"
  RESULT_VALUE: 0.305
- BIOPOLYMER_SEQUENCE: "SSLLPLLAQLVG"
  MEASURED_ENDPOINT: "protein stability index"
  RESULT_VALUE: 0.265
- BIOPOLYMER_SEQUENCE: "VPPGCSLFAFIL"
  MEASURED_ENDPOINT: "protein stability index"
  RESULT_VALUE: 0.547
- BIOPOLYMER_SEQUENCE: "PFLSLPFLFPSS"
  MEASURED_ENDPOINT: "protein stability index"
  RESULT_VALUE: 0.696
- BIOPOLYMER_SEQUENCE: "WCAMITVFCGSG"
  MEASURED_ENDPOINT: "protein stability index"
  RESULT_VALUE: 0.208
- BIOPOLYMER_SEQUENCE: "AGGGGRFWVCVG"
  MEASURED_ENDPOINT: "protein stability index"
  RESULT_VALUE: 0.258
- BIOPOLYMER_SEQUENCE: "SWWGDVVWFVVC"
  MEASURED_ENDPOINT: "protein stability index"
  RESULT_VALUE: 0.199
- BIOPOLYMER_SEQUENCE: "GIPVRRLLFLVA"
  MEASURED_ENDPOINT: "protein stability index"
  RESULT_VALUE: 0.17
- BIOPOLYMER_SEQUENCE: "LYTFCSMDANPM"
  MEASURED_ENDPOINT: "protein stability index"
  RESULT_VALUE: 0.468
- BIOPOLYMER_SEQUENCE: "AYACSILRCKSS"
  MEASURED_ENDPOINT: "protein stability index"
  RESULT_VALUE: 0.219
- BIOPOLYMER_SEQUENCE: "LSLCPVHRLLVL"
  MEASURED_ENDPOINT: "protein stability index"
  RESULT_VALUE: 0.379
- BIOPOLYMER_SEQUENCE: "NENQIKVIMLLV"
  MEASURED_ENDPOINT: "protein stability index"
  RESULT_VALUE: 0.196
- BIOPOLYMER_SEQUENCE: "VLVFYFCFSFCS"
  MEASURED_ENDPOINT: "protein stability index"
  RESULT_VALUE: 0.129
- BIOPOLYMER_SEQUENCE: "SVLASFFSAFVC"
  MEASURED_ENDPOINT: "protein stability index"
  RESULT_VALUE: 0.118
- BIOPOLYMER_SEQUENCE: "HFLRYCSWFGLL"
  MEASURED_ENDPOINT: "protein stability index"
  RESULT_VALUE: 0.171
- BIOPOLYMER_SEQUENCE: "HVSVIRRGICCA"
  MEASURED_ENDPOINT: "protein stability index"
  RESULT_VALUE: 0.278
- BIOPOLYMER_SEQUENCE: "WALVLLVPVWFD"
  MEASURED_ENDPOINT: "protein stability index"
  RESULT_VALUE: 0.402
- BIOPOLYMER_SEQUENCE: "LCSYSTIPLRLY"
  MEASURED_ENDPOINT: "protein stability index"
  RESULT_VALUE: 0.231
- BIOPOLYMER_SEQUENCE: "YLFPHVRPKFPG"
  MEASURED_ENDPOINT: "protein stability index"
  RESULT_VALUE: 0.664
- BIOPOLYMER_SEQUENCE: "FFLLSVVLKYSV"
  MEASURED_ENDPOINT: "protein stability index"
  RESULT_VALUE: 0.0922
- BIOPOLYMER_SEQUENCE: "FGCLFILRCSFL"
  MEASURED_ENDPOINT: "protein stability index"
  RESULT_VALUE: 0.304
- BIOPOLYMER_SEQUENCE: "SCIFVSSYFFVF"
  MEASURED_ENDPOINT: "protein stability index"
  RESULT_VALUE: 0.18
- BIOPOLYMER_SEQUENCE: "LVRGSRLIVIVG"
  MEASURED_ENDPOINT: "protein stability index"
  RESULT_VALUE: 0.328
- BIOPOLYMER_SEQUENCE: "LFLFFFLPPLLF"
  MEASURED_ENDPOINT: "protein stability index"
  RESULT_VALUE: 0.366
- BIOPOLYMER_SEQUENCE: "FRVFYSFLLCLS"
  MEASURED_ENDPOINT: "protein stability index"
  RESULT_VALUE: 0.162
- BIOPOLYMER_SEQUENCE: "SASPFYLPPPPV"
  MEASURED_ENDPOINT: "protein stability index"
  RESULT_VALUE: 0.671
- BIOPOLYMER_SEQUENCE: "PPPPLFLIVLHL"
  MEASURED_ENDPOINT: "protein stability index"
  RESULT_VALUE: 0.401
- BIOPOLYMER_SEQUENCE: "CHFLLPFLFTCA"
  MEASURED_ENDPOINT: "protein stability index"
  RESULT_VALUE: 0.221
- BIOPOLYMER_SEQUENCE: "NDKGKKTKIKIV"
  MEASURED_ENDPOINT: "protein stability index"
  RESULT_VALUE: 0.185
- BIOPOLYMER_SEQUENCE: "QRFASFFFLHLS"
  MEASURED_ENDPOINT: "protein stability index"
  RESULT_VALUE: 0.142
- BIOPOLYMER_SEQUENCE: "PPRSRPLLRPLP"
  MEASURED_ENDPOINT: "protein stability index"
  RESULT_VALUE: 0.684
- BIOPOLYMER_SEQUENCE: "LFWCCVGLSVWR"
  MEASURED_ENDPOINT: "protein stability index"
  RESULT_VALUE: 0.31
